Test system: Protein farnesyltransferase (Homo sapiens)
assay.name: Inhibition of FTase at 100 uM
observed.property: inhibition (%)
Write the answer as a number in %, unit excluded.

Query: inhibition; subject: "CCOC(=O)/C=C/c1ccc(OC/C=C(\C)CCC=C(C)C)c(OC)c1"
5.5

Query: inhibition; subject: "COc1cc(/C=C/C(=O)O)ccc1OC/C=C(\C)CC/C=C(\C)CCC=C(C)C"
11

Query: inhibition; subject: "COc1cc(/C=C/C(=O)O)ccc1OCC=C(C)C"
9.3

Query: inhibition; subject: "COc1cc(C(=O)O)ccc1OC/C=C(\C)CCC=C(C)C"
0

Query: inhibition; subject: "COc1c(OC/C=C(\C)CCC=C(C)C)ccc2ccc(=O)oc12"
15.5

Query: inhibition; subject: "COc1cc(C(=O)O)ccc1OCC=C(C)C"
2.4
